Readings of protein stability index for the listed variants
B1: VPS39 (parent)
chain: QQVKCIITEEKVCMVCKKKIGNSA

- Variants of: B1
- testProtocol: protein stability index of a GFP-peptide fusion (GPS, HEK-293T) (PSI 1-6); higher = more stable;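 further: lentivirally expressed fusions sorted by FACS into six bins by GFP to DsRed ratio, PSI derived from sequencing read proportions per bin multiplied by bin number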
- measurementContext: c terminus: a fixed tail appended

# mutations, protein stability index
rows = [
    ("A24N", 2.84),
    ("M14F", 2.89),
    ("E9F", 2.94),
    ("N22A", 2.21),
    ("S23E", 4.07),
    ("I7S", 3.06),
    ("V15C", 3.26),
    ("K4G", 2.81),
    ("A24W", 2.07),
    ("V3Q", 3.32),
    ("V12C", 2.09),
    ("K18A", 2.88),
    ("K19F", 1.72),
    ("A24G", 2.29),
    ("T8N", 2.9),
    ("C16G", 4.28),
    ("K11S", 2.9),
    ("V12K", 2.94),
    ("K11M", 1.8),
    ("K4P", 3.12),
    ("I7L", 2.11),
    ("V15R", 3.07),
    ("T8W", 2.87),
    ("E9R", 1.54),
    ("Q2V", 3.17),
    ("C16I", 2.19),
    ("V12G", 3.55),
    ("V3A", 2.81),
    ("K19H", 2.12),
    ("K11E", 2.87),
    ("E9Q", 1.85),
    ("E10S", 2.03),
    ("G21I", 3.17),
    ("K19P", 2.14),
    ("G21D", 2.81),
    ("S23I", 1.73),
    ("C13P", 3.78),
    ("I7V", 3.4),
    ("A24H", 2.23),
    ("N22C", 2.98),
    ("I20Y", 3.15),
    ("N22G", 1.42),
]
